The reported numbers originate from patent US11999676B2.

Listed compounds paired with reported pKi
- target or system: hERG channel (Homo sapiens (Human), UniProt Q12809)
- Sequence (Q12809 whole entry): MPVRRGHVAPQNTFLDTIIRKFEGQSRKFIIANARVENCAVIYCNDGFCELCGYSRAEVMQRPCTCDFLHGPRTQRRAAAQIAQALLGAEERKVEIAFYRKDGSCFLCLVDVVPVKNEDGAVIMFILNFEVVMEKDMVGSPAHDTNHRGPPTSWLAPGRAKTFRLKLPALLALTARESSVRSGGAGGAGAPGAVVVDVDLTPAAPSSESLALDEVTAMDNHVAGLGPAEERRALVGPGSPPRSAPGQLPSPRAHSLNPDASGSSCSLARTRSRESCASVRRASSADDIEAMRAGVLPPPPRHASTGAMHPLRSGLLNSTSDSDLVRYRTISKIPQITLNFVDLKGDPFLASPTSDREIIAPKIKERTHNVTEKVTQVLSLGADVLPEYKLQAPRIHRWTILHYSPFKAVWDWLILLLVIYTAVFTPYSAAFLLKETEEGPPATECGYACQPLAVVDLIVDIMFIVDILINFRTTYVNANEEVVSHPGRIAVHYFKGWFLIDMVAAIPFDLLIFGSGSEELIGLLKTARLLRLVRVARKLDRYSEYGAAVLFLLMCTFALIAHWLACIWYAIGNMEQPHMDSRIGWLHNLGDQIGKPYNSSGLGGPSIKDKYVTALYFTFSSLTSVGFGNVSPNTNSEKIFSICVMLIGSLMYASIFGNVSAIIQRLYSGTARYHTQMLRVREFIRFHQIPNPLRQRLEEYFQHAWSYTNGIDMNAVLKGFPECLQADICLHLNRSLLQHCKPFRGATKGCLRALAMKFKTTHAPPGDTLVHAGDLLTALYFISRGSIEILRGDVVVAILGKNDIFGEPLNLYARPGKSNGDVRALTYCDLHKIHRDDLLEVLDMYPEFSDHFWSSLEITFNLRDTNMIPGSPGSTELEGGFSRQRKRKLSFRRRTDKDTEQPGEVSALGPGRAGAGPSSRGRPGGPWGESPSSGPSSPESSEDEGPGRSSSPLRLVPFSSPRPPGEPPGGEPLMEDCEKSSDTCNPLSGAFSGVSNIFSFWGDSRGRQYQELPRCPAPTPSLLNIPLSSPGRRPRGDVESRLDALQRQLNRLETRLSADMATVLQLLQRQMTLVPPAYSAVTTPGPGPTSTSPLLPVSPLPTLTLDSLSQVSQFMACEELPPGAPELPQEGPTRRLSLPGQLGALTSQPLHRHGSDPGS
- method notes: [3H]Dofetilide binding assay, HEK-293 cell membrane preparation
- assay context: [3H]dofetilide, HEK-293 cell membranes; read-out: hERG Binding: Mean Ki ± Standard Deviation
As a rule, pKi stands for the negative log10 of the concentration, concentration in M.

Fill in: pKi of O=CNc1ccc(CC(CF)NCCCc2ccc(F)cc2)cc1 (stereo not shown) is ___
6.29

Name the recorded pKi for CC(Cc1ccc(NC=O)cc1)NCCCc1ccc(F)cc1 (stereo not shown) [Compound 89] .
6.13

====

Ki values, listed per item
- target or system: hERG channel (Homo sapiens (Human))
- method notes: [3H]Dofetilide binding assay, HEK-293 cell membrane preparation
- assay context: [3H]dofetilide, HEK-293 cell membranes; read-out: hERG Binding: Mean Ki ± Standard Deviation
The reply should be a number in nM, with the unit left off.

Tell me the measured Ki of CC(Cc1ccc(Cl)cc1)NCCCc1ccc(N)cc1 (centres unmarked) , please.
2380

Value lookup for Ki; key = CC(Cc1ccc(F)cc1)NCCCc1ccc(I)cc1 (centres unmarked)
512

Tell me the measured Ki of Nc1ccc(CC(CF)NCCCc2ccc(F)cc2)cc1 (centres unmarked) , please.
3440

I am curious: what Ki value has been reported for CC(Cc1ccc([N+](=O)[O-])cc1)NCCCc1ccc(F)cc1 (centres unmarked) [Compound 118] ?
206

Recorded Ki of CC(Cc1ccccc1)NCCCc1ccc(O)cc1 (centres unmarked) , please.
2750

Sample CC(Cc1ccncc1)NCCCc1ccc(Br)cc1 (centres unmarked) — what was its Ki?
1780

====

- target or system: VMAT2 (Rattus norvegicus (Rat), UniProt Q01827)
- method notes: [3H]Dopamine ([3H]DA) uptake assay, vesicular preparation
- Assay type: biochemical
- assay context: [3H]DA uptake (Ki) VMAT2, rat striatal synaptic vesicles
Recorded pKi values for a group of molecules are listed next.
// field semantics: pKi = negative decimal log of concentration (mol/L)

C[C@H](Cc1ccc(Br)cc1)NCCCc1ccccc1: 8.22
COc1ccc(CCCN[C@H](C)Cc2ccccc2)cc1.Cl: 8.06
COc1ccc(CCCN[C@@H](C)Cc2ccccc2)cc1.Cl: 7.59
C[C@@H](Cc1ccc(Br)cc1)NCCCc1ccccc1: 7.49

Shift focus to the following entry.
Which pKi value is on record for COc1ccc(C[C@H](C)NCCCc2ccccc2)cc1 ?
7.70

====

- method notes: Microsomal stability assay, human liver microsomes
- assay context: both, human, pooled liver microsomes, pH 7.4, Microsomal stability assays: Half-life
measured parameter: half-life at 0.08 µM (h)
Lab book: enter the figure in h, no units written.

Below are worked cases with known answers.
CC(Cc1ccc(F)cc1)NCCCc1ccc(NC=O)cc1 (stereo not shown): 0.9
CC(Cc1ccc(F)c(F)c1)NCCCc1ccc(N)cc1 (stereo not shown): 2.2

Consider the molecule CC(Cc1ccc(F)cc1)NCCCc1ccc(F)cc1 (stereo not shown) and give its measured half-life at 0.08 µM.
3.9

Report half-life at 0.08 µM for COc1ccc(CCCNC(C)Cc2ccncc2)cc1 (stereo not shown) please.
0.5

====

- method notes: Microsomal stability assay, human liver microsomes
- assay context: both, human, pooled liver microsomes, pH 7.4, Microsomal stability assays: Clearance
measured parameter: CLint scaled at 0.08 µM (mL/min/kg)
Dear colleague, please return just the value in mL/min/kg, with no unit written.

CC(Cc1ccc(F)cc1)NCCCc1ccc(N(C)C)cc1 (stereo not drawn): 182

CLint scaled at 0.08 µM for CC(Cc1ccc(N)cc1)NCCCc1ccc(F)cc1 (stereo not drawn) ?
25.2

====

- method notes: Microsomal stability assay, human liver microsomes
- assay context: both, human, pooled liver microsomes, pH 7.4, Microsomal stability assays: Clearance
measured parameter: CLint scaled at 0.08 µM

Worked set:
CC(Cc1ccc(Br)cc1)NCCCc1ccncc1 (stereo not drawn): < 5.2 mL/min/kg
CC(Cc1ccc(Br)cc1)NCCCc1ccc(I)cc1 (stereo not drawn): < 5.2 mL/min/kg

Form field: reported CLint scaled at 0.08 µM of CC(Cc1ccc(F)cc1)NCCCc1ccc([N+](=O)[O-])cc1 (stereo not drawn)
< 5.2 mL/min/kg

====

- method notes: Microsomal stability assay, rat liver microsomes
- assay context: female, Sprague-Dawley, rat, liver microsomes, pH 7.4, Microsomal stability assays: Half-life
Measured half-life at 0.08 µM by item

Use the examples below as a reference point.
CC(Cc1ccc(F)cc1)NCCCn1ccnc1 (stereo not drawn): > 4 h
CC(Cc1ccc(F)cc1)NCCCc1ccccc1 (stereo not drawn): < 0.1 h
OCC(Cc1ccc(F)cc1)NCCCc1ccncc1 (stereo not drawn): > 4 h
CC(Cc1ccc(F)cc1)NCCCc1ccc(S(C)(=O)=O)cc1 (stereo not drawn): > 4 h
CC(Cc1ccc([N+](=O)[O-])cc1)NCCCc1ccccc1 (stereo not drawn): < 0.1 h

Lab note: next compound to report on.
For the compound CCC(Cc1ccccc1)NCCCc1ccc(O)cc1 (stereo not drawn) , what half-life at 0.08 µM is on record?
< 0.1 h

====

Below is a list of entries, each paired with its recorded half-life at 0.08 µM value.
- method notes: Microsomal stability assay, human liver microsomes
- assay context: both, human, pooled liver microsomes, pH 7.4, Microsomal stability assays: Half-life

Take a look at these entries with their results.
FCC(Cc1ccc(-c2cncnc2)cc1)NCCCc1ccc(F)cc1 (stereo not drawn) [Compound 68]: < 0.1 h
COc1ccc(CCC(C)NC(C)Cc2ccccc2)cc1 (stereo not drawn) [Compound 199]: < 0.1 h
CC(Cc1ccc([N+](=O)[O-])cc1)NCCCc1ccc(Br)cc1 (stereo not drawn) [Compound 121]: > 4 h
CC(Cc1ccc(F)cc1)NCCCc1ccc(Br)cc1 (stereo not drawn) [Compound 146]: > 4 h
CC(Cc1ccncc1)NCCCc1ccc(O)cc1 (stereo not drawn) [Compound 179]: > 4 h
CC(Cc1ccc(F)cc1)NCCCc1ccncc1 (stereo not drawn) [Compound 177]: > 4 h
CC(Cc1ccc(F)cc1)NCCCn1ccnc1 (stereo not drawn) [Compound 134]: > 4 h
OCC(Cc1ccc(F)cc1)NCCCc1ccncc1 (stereo not drawn) [Compound 129]: > 4 h

# query: half-life at 0.08 µM of entry CCC(Cc1ccccc1)NCCCc1ccc(O)cc1 (stereo not drawn) [Compound 208]
< 0.1 h

====

- method notes: Microsomal stability assay, rat liver microsomes
- assay context: female, Sprague-Dawley, rat, liver microsomes, pH 7.4, Microsomal stability assays: Clearance
Answer false if CLint scaled at 0.08 µM is under 10 L/h/kg, and true if it is 10 L/h/kg or more.

Previously resolved entries follow.
CC(C)C(Cc1ccc(F)cc1)NCCCc1ccc(Br)cc1 (stereo not shown): true
CC(Cc1ccc(F)cc1)NCCCc1ccc(F)cc1 (stereo not shown): true
CC(Cc1ccc(F)cc1)NCCCc1ccc(Cl)cc1 (stereo not shown): true
CC(Cc1ccc(Cl)cc1)NCCCc1ccc(N)cc1 (stereo not shown): false
CC(Cc1ccc(Br)cc1)NCCCc1ccc(I)cc1 (stereo not shown): true

Quick check, CLint scaled at 0.08 µM >= 10 L/h/kg? CC(Cc1ccc(F)cc1)NCCCc1ccc(N(C)C)cc1 (stereo not shown)
true

Could you please find out whether CC(Cc1ccccc1)NCCCc1ccc(Br)cc1 (stereo not shown) has CLint scaled at 0.08 µM that meets 10 L/h/kg or exceeds it?
true

Please check the record CC(Cc1ccc(F)c(F)c1)NCCCc1ccc(N)cc1 (stereo not shown) and state if its CLint scaled at 0.08 µM is at or above 10 L/h/kg.
false

Quick check, CLint scaled at 0.08 µM >= 10 L/h/kg? CC(Cc1ccc(F)cc1)NCCCc1ccc(N)cc1 (stereo not shown)
false

Given CC(Cc1ccc(Br)cc1)NCCCc1ccc(F)cc1 (stereo not shown) , state whether its CLint scaled at 0.08 µM is at least 10 L/h/kg.
true

Does the reported CLint scaled at 0.08 µM for CC(Cc1ccc(Br)cc1)NCCCc1ccc(Cl)cc1 (stereo not shown) fall at or above the 10 L/h/kg mark?
true

Determine whether this compound has CLint scaled at 0.08 µM no lower than 10 L/h/kg: CC(Cc1ccc(F)cc1)NCCCc1ccc(NC=O)cc1 (stereo not shown)
false

Quick check, CLint scaled at 0.08 µM >= 10 L/h/kg? CC(Cc1ccc(F)c(F)c1)NCCCc1ccncc1 (stereo not shown)
false

Does the compound CC(Cc1ccc(F)cc1)NCCCc1ccc2[nH]ccc2c1 (stereo not shown) have recorded CLint scaled at 0.08 µM that is 10 L/h/kg or more?
true

Exam item: decide whether the reported CLint scaled at 0.08 µM for CC(Cc1ccccc1)NCCCc1ccc(O)cc1 (stereo not shown) is at least 10 L/h/kg.
true

====

- target or system: VMAT2 (Rattus norvegicus (Rat))
- method notes: [3H]Dopamine ([3H]DA) uptake assay, vesicular preparation
- Format: biochemical
- assay context: [3H]DA uptake, rat; read-out: VMAT2 (rat) Inhibition: Mean Ki ± Standard Deviation
Some compounds, each annotated with its measured Ki.
Express the result in nM but write the number alone.

Below, 8 compounds whose answers are already recorded.
CC(Cc1ccc(F)cc1)NCCCc1ccc(I)cc1 (stereo not drawn): 52.7
COc1ccc(CC(C)NCCCc2ccc(N)cc2)cc1 (stereo not drawn): 68.9
FCC(Cc1ccccc1)NCCCc1ccc(F)cc1 (stereo not drawn): 14.7
CC(Cc1ccc([N+](=O)[O-])cc1)NCCCc1ccc(F)cc1 (stereo not drawn) [Compound 118]: 7.08
CC(Cc1ccc(F)cc1)NCCCc1ccc(Br)cc1 (stereo not drawn) [Compound 146]: 22.1
CC(Cc1ccc(F)cc1)NCCCc1c[nH]c2ccccc12 (stereo not drawn): 36.5
FCC(Cc1ccccc1)NCCCc1ccccc1 (stereo not drawn): 27.8
CC(Cc1ccc(F)cc1)NCCCc1ccc(S(C)(=O)=O)cc1 (stereo not drawn): 146

Which value of Ki has been reported for CC(Cc1ccc(-c2cccnc2)cc1)NCCCc1ccc(F)cc1 (stereo not drawn) in the records?
11.9

Please report the recorded Ki for CC(Cc1ccc(Br)cc1)NCCCc1ccc(F)cc1 (stereo not drawn) .
15.2

For the compound shown here, CC(Cc1ccc([N+](=O)[O-])cc1)NCCCc1ccccc1 (stereo not drawn) , give the reported Ki.
19

For the compound shown here, CC(Cc1ccc(Cl)cc1)NCCCc1ccc([N+](=O)[O-])cc1 (stereo not drawn) , give the reported Ki.
16.4

For CC(Cc1ccccc1)NCCCc1ccc([N+](=O)[O-])cc1 (stereo not drawn) , what is its reported Ki?
4.97
